Recorded Population Mitotic Cells (%) by entry
Tested on: U2OS
TEST_DETAILS: Multiplex assay against U2OS
Assay type: toxicity, cell-based
RUN_CONDITIONS: human, 12 h, 10 µM, compound concentration 10 uM, replicate 2
MEASURED_ENDPOINT: Population Mitotic Cells (%)

molecule="CCn1cc(-c2ccnc3[nH]c(-c4cccc(CN(C)C)c4)cc23)c(-c2ccc(NC(=O)N(C)C)cc2)n1 [GSK-1070916]" recorded_result=51%
molecule="O=C1NC(=O)C(c2cnc3ccccn23)=C1c1cn2c3c(cc(F)cc13)CN(C(=O)N1CCCCC1)CC2 [LY-2090314]" recorded_result=0%
molecule="O=C(Nc1ccc(-n2nc(-c3cccnc3)cc2C(F)(F)F)cn1)c1ccc(-c2ccccc2)c(F)c1 [BI 2049]" recorded_result=0%
molecule=Cc1cc(C)c(S(=O)(=O)N(Cc2ccc(-c3cccc(S(C)(=O)=O)c3)cc2)Cc2ccc(C(F)(F)F)o2)c(C)c1 recorded_result=100%
molecule="O=C(Cc1ccc(-c2ccc(OCCN3CCOCC3)cc2)cn1)NCc1ccccc1 [TIRBANIBULIN]" recorded_result=50%
molecule="Cn1nc(C(F)(F)F)cc1-c1cnc(N2CCc3cc(S(=O)(=O)Nc4c(F)cc(Cl)cc4F)cc(N4CCCC4=O)c32)nc1 [TP-020]" recorded_result=83%
molecule=O=C(Nc1cccnn1)N1CCC(=Cc2cccc(Oc3ccc(C(F)(F)F)cn3)c2)CC1 recorded_result=0%
molecule="COCC(=O)NC/C=C/c1ccc2ncnc(Nc3ccc(Oc4ccc(C)nc4)c(C)c3)c2c1 [CP-724714]" recorded_result=20%

###

Test system: U2OS
TEST_DETAILS: Multiplex assay against U2OS
Format: toxicity, cell-based
RUN_CONDITIONS: human, 12 h, 10 µM, compound concentration 10 uM, replicate 1
Recorded Total Cell Count by entry
MEASURED_ENDPOINT: Total Cell Count

compound="CN1CCN(C(=O)C(C)(C)c2ccc(C(=O)Nc3cn4cc(-c5cc(C(C)(C)C)cc(C(C)(C)C)c5)ccc4n3)cc2)CC1 [T3-CLK-N]" study_target=U2OS measured_endpoint="Total Cell Count" recorded_result=177
compound="CN(C)C(=O)C(CCN1CCC(O)(c2ccc(Cl)cc2)CC1)(c1ccccc1)c1ccccc1.Cl [LOPERAMIDE HYDROCHLORIDE]" study_target=U2OS measured_endpoint="Total Cell Count" recorded_result=129
compound="O=C1NC(=O)C(c2cnc3ccccn23)=C1c1cn2c3c(cc(F)cc13)CN(C(=O)N1CCCCC1)CC2 [LY-2090314]" study_target=U2OS measured_endpoint="Total Cell Count" recorded_result=153
compound=Cc1ccc(C(=O)Nc2cccc(C(F)(F)F)c2)cc1Nc1nc(-c2cccnc2)nc2c1cnn2C study_target=U2OS measured_endpoint="Total Cell Count" recorded_result=147
compound=Cc1ccc2nc(NCCN)c3ncc(C)n3c2c1.O=C(O)C(F)(F)F.O=C(O)C(F)(F)F study_target=U2OS measured_endpoint="Total Cell Count" recorded_result=132
compound="O=C(Nc1ccc(-n2nc(-c3cccnc3)cc2C(F)(F)F)cn1)c1ccc(-c2ccccc2)c(F)c1 [BI 2049]" study_target=U2OS measured_endpoint="Total Cell Count" recorded_result=129
compound="COc1cccc2cc(-c3nc([C@H]4CC[C@H](C(=O)O)CC4)n4ncnc(N)c34)[nH]c12 [OSI-027]" study_target=U2OS measured_endpoint="Total Cell Count" recorded_result=160
compound="CCCS(=O)(=O)Nc1ccc(F)c(C(=O)c2c[nH]c3ncc(Cl)cc23)c1F [PLX-4720]" study_target=U2OS measured_endpoint="Total Cell Count" recorded_result=164

###

Test system: Fibroblast
TEST_DETAILS: Multiplex assay against human fibroblast
Assay type: toxicity, cell-based
RUN_CONDITIONS: 12 h, 1 µM, compound concentration 1 uM, replicate 1
Recorded Population Fragmented Nuclei (%) by entry
MEASURED_ENDPOINT: Population Fragmented Nuclei (%)

molecule=Cl.O=c1c2cccn2c2ccccc2n1CCCN1CCC(c2ccc(Cl)cc2)CC1 measured_endpoint="Population Fragmented Nuclei (%)" recorded_result=21%
molecule=Cn1nc(C(F)(F)F)cc1-c1cnc(N2CCc3cc(S(=O)(=O)Nc4c(F)cc(Cl)cc4F)cc(N4CCCC4=O)c32)nc1 measured_endpoint="Population Fragmented Nuclei (%)" recorded_result=20%
molecule=O=C(Nc1ccc(Cl)cc1)Nc1cccc(-c2cccc(N3CCCC3)n2)c1 measured_endpoint="Population Fragmented Nuclei (%)" recorded_result=32%
molecule=C=CCn1c(=O)c2cnc(Nc3ccc(N4CCN(C)CC4)cc3)nc2n1-c1cccc(C(C)(C)O)n1 measured_endpoint="Population Fragmented Nuclei (%)" recorded_result=28%
molecule=CN([C@@H](Cc1ccc(OS(=O)(=O)c2cccc3cnccc23)cc1)C(=O)N1CCN(c2ccccc2)CC1)S(=O)(=O)c1cccc2cnccc12 measured_endpoint="Population Fragmented Nuclei (%)" recorded_result=29%
molecule=CN1CCN(C(=O)C(C)(C)c2ccc(C(=O)Nc3cn4cc(-c5cc(C(C)(C)C)cc(C(C)(C)C)c5)ccc4n3)cc2)CC1 measured_endpoint="Population Fragmented Nuclei (%)" recorded_result=34%
molecule=CCOc1cc(C(=O)N2CCC(N3CCN(C)CC3)CC2)ccc1Nc1ncc2c(n1)N(C1CCCC1)c1ccccc1C(=O)N2C measured_endpoint="Population Fragmented Nuclei (%)" recorded_result=27%
molecule=O=C(Cc1ccc(-c2ccc(OCCN3CCOCC3)cc2)cn1)NCc1ccccc1 measured_endpoint="Population Fragmented Nuclei (%)" recorded_result=20%
molecule=Cc1cc(C)c(S(=O)(=O)N(Cc2ccc(-c3cccc(S(C)(=O)=O)c3)cc2)Cc2ccc(C(F)(F)F)o2)c(C)c1 measured_endpoint="Population Fragmented Nuclei (%)" recorded_result=20%
molecule=CNc1cc(Oc2cc(C(=O)Nc3cc(N4CCN(C)CC4)cc(C(F)(F)F)c3)ccc2C)ncn1 measured_endpoint="Population Fragmented Nuclei (%)" recorded_result=31%
molecule=CCn1cc(-c2ccnc3[nH]c(-c4cccc(CN(C)C)c4)cc23)c(-c2ccc(NC(=O)N(C)C)cc2)n1 measured_endpoint="Population Fragmented Nuclei (%)" recorded_result=33%
molecule=Cl.Oc1ccc2c3c1O[C@H]1c4[nH]c5c(c4C[C@@]4(O)[C@@H](C2)N(CC2CC2)CC[C@]314)C[C@@]1(O)[C@H]2Cc3ccc(O)c4c3[C@@]1(CCN2CC1CC1)[C@H]5O4 measured_endpoint="Population Fragmented Nuclei (%)" recorded_result=27%
molecule=CCNc1cc(N[C@H]2CC[C@H](O)CC2)nc(Nc2ccc3c(ccn3Cc3ccccc3)c2)n1 measured_endpoint="Population Fragmented Nuclei (%)" recorded_result=45%
molecule=COc1ccc(-c2ccc3c(N4CCOCC4)nc(N4C[C@@H](C)O[C@@H](C)C4)nc3n2)cc1CO measured_endpoint="Population Fragmented Nuclei (%)" recorded_result=30%
molecule=O=C1N/C(=N/c2ccccc2F)S/C1=C\c1ccc(C(=O)O)cc1 measured_endpoint="Population Fragmented Nuclei (%)" recorded_result=29%
molecule=S=C(NCCCc1c[nH]cn1)NCCCN(Cc1ccc(Cl)c(Cl)c1)c1ccc(Br)cn1 measured_endpoint="Population Fragmented Nuclei (%)" recorded_result=28%
molecule="CN(C)C(=O)C(CCN1CCC(O)(c2ccc(Cl)cc2)CC1)(c1ccccc1)c1ccccc1.Cl [LOPERAMIDE HYDROCHLORIDE]" measured_endpoint="Population Fragmented Nuclei (%)" recorded_result=26%
molecule=CCOc1cc2ncc(C#N)c(Nc3ccc(OCc4ccccn4)c(Cl)c3)c2cc1NC(=O)/C=C/CN(C)C measured_endpoint="Population Fragmented Nuclei (%)" recorded_result=21%
molecule=CCCS(=O)(=O)Nc1ccc(F)c(C(=O)c2c[nH]c3ncc(Cl)cc23)c1F measured_endpoint="Population Fragmented Nuclei (%)" recorded_result=20%
molecule=CCCn1c(=O)c2[nH]c(-c3cnn(Cc4cccc(C(F)(F)F)c4)c3)nc2n(CC)c1=O measured_endpoint="Population Fragmented Nuclei (%)" recorded_result=26%
molecule=CCn1c(=O)c(-c2ccc(-c3cncs3)cc2Cl)cc2cnc(Nc3ccc(N4CCN(C)CC4)cc3)nc21 measured_endpoint="Population Fragmented Nuclei (%)" recorded_result=26%
molecule=CNC(=O)c1ccc(Nc2nc(OC3CCCC3)c3c(-c4ccc5nc(C)oc5c4)c[nH]c3n2)c(OC)c1 measured_endpoint="Population Fragmented Nuclei (%)" recorded_result=29%
molecule="COc1cc2ncnc(Nc3ccc(F)c(Cl)c3)c2cc1NC(=O)/C=C/CN1CCCCC1 [DACOMITINIB ANHYDROUS]" measured_endpoint="Population Fragmented Nuclei (%)" recorded_result=33%
molecule=COc1cccc2cc(-c3nc([C@H]4CC[C@H](C(=O)O)CC4)n4ncnc(N)c34)[nH]c12 measured_endpoint="Population Fragmented Nuclei (%)" recorded_result=47%
molecule=Cl.O=C(c1ccc(Nc2nccc(-c3cc4ccccc4s3)n2)cc1)N1CCC(N2CCCC2)CC1 measured_endpoint="Population Fragmented Nuclei (%)" recorded_result=42%
molecule=CN[C@@H]1C[C@H]2O[C@@](C)([C@@H]1OC)n1c3ccccc3c3c4c(c5c6ccccc6n2c5c31)C(=O)NC4 measured_endpoint="Population Fragmented Nuclei (%)" recorded_result=41%
molecule=COc1ccc(S(=O)(=O)N(CCO)c2ccccc2CN(C)C/C=C/c2ccc(Cl)cc2)cc1.O=P(O)(O)O measured_endpoint="Population Fragmented Nuclei (%)" recorded_result=35%
molecule=Cc1cn(-c2cc(NC(=O)c3ccc(C)c(Nc4nccc(-c5cccnc5)n4)c3)cc(C(F)(F)F)c2)cn1 measured_endpoint="Population Fragmented Nuclei (%)" recorded_result=36%
molecule=CCc1cccc(CC)c1NC(=O)c1nn(C)c2c1CCc1cnc(Nc3ccc(N4CCN(C)CC4)cc3OC)nc1-2 measured_endpoint="Population Fragmented Nuclei (%)" recorded_result=17%
molecule=CCN1CCN(c2ccc(Nc3cc(N(C)C(=O)Nc4c(Cl)c(OC)cc(OC)c4Cl)ncn3)cc2)CC1 measured_endpoint="Population Fragmented Nuclei (%)" recorded_result=28%
molecule="CN1CCC(=C2c3ccccc3CC(=O)c3sccc32)CC1.O=C(O)/C=C/C(=O)O [KETOTIFEN FUMARATE]" measured_endpoint="Population Fragmented Nuclei (%)" recorded_result=26%
